MEASURED TARGET: Coagulation factor XI (Homo sapiens)
Sequence (P03951 19-387 limits assumed): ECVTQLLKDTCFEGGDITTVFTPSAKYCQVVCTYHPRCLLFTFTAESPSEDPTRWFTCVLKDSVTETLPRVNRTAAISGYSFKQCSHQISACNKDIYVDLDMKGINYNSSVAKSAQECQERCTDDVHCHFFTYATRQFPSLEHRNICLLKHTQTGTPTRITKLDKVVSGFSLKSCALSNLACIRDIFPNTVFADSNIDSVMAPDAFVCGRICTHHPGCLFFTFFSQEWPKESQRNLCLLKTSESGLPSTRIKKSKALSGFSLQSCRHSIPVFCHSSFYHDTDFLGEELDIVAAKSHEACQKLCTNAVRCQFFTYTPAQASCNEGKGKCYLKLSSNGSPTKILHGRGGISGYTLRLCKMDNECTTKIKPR
Sequence (P03951 388-625 limits assumed): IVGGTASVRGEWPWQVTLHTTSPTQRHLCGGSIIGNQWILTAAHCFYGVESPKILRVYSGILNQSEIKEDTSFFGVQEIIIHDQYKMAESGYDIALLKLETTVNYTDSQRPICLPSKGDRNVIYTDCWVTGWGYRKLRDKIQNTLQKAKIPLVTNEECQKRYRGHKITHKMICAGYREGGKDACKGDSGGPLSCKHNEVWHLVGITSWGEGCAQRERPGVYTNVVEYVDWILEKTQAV
ASSAY REMARKS: Inhibition of human FXIa using S-2366 as chromogenic substrate preincubated with enzyme for 10 mins followed by substrate addition by spectrophotometric analysis relative to control
Set-up: concentration or dose not given beside the values
MEASURED ATTRIBUTE: inhibition (%)

- O=c1c2ccccc2nc(-c2cccc(OS(=O)(=O)O)c2)n1C/C=C/Cn1c(-c2cccc(OS(=O)(=O)O)c2)nc2ccccc2c1=O: 96
- O=c1c2ccccc2nc(-c2cccc(OS(=O)(=O)O)c2)n1Cc1ccccc1Cn1c(-c2cccc(OS(=O)(=O)O)c2)nc2ccccc2c1=O: 93
- O=c1c2ccccc2nc(-c2ccc(OS(=O)(=O)O)cc2)n1CCCCCCCCn1c(-c2ccc(OS(=O)(=O)O)cc2)nc2ccccc2c1=O: 81
- O=c1c2ccccc2nc(-c2ccc(OS(=O)(=O)O)cc2)n1CCCCCCCCn1cc(Cn2c(-c3ccc(OS(=O)(=O)O)cc3)nc3ccccc3c2=O)nn1: 100
